# Study Target: Drosophila TRPA1(B) (Drosophila melanogaster)
# Sequence (Q7Z020 1-1197): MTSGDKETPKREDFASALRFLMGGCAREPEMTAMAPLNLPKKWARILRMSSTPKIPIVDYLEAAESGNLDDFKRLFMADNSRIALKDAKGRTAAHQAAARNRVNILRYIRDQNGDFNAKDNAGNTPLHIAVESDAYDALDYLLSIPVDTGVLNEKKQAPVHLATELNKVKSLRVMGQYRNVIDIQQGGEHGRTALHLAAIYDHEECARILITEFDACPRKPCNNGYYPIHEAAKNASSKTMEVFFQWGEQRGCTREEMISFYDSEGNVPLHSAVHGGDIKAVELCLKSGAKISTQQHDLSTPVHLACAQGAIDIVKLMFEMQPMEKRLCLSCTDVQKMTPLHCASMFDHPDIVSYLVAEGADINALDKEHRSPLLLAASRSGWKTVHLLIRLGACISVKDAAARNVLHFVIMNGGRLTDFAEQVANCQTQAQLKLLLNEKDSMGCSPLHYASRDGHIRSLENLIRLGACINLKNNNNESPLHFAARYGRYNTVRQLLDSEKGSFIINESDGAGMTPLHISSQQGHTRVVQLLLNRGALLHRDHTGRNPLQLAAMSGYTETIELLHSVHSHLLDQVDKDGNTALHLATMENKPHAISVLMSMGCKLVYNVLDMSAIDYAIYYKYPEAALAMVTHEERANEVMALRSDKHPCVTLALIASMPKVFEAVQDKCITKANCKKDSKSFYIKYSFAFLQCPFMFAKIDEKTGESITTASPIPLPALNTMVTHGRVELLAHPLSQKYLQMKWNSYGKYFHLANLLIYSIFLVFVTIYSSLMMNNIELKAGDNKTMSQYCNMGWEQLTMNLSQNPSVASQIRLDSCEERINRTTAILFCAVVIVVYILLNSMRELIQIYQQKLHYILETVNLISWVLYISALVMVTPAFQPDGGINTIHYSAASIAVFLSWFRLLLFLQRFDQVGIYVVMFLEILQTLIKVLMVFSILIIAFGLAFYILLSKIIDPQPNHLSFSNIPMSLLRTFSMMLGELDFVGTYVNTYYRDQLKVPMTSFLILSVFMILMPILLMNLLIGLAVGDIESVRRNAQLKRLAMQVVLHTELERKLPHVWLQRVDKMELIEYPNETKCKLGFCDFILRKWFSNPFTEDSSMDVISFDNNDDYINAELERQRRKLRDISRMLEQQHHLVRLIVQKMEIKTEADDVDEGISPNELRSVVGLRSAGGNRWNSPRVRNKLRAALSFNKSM
# Assay Procedure: Two-electrode voltage clamp of Xenopus oocytes expressing Drosophila TRPA1(B)
Metric Name: EC50 (µM)
Numbers only, in µM.

Ask: Given the entry OO [H2O2, hydrogen peroxide] , what EC50 was observed with Drosophila TRPA1(B) (Drosophila melanogaster)?
Reply: 900
